Documented kon across a set of binders
Molecular target: T1, TRBC1 (T cell receptor beta-chain constant domain 1), interaction partner protein injected in SPR (human, UniProt P01850 1-129, limits assumed)
T1 construct: also called TCR beta constant region 1
T1 sequence (P01850 1-129 limits assumed): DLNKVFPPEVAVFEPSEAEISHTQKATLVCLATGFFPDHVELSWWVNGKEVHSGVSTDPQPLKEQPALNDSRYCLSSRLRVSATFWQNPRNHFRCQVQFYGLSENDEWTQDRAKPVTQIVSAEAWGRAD
Assay: SPR (Biacore T200), antibody captured on anti-human IgG chip, TRBC1 injected, 25 C, 1:1 Langmuir fit
Return type: number; implicit unit M⁻¹ s⁻¹.

[
  {
    "BINDER": "Mut5 (antibody, V domains shown, Variant of hJOVI-1; captured by anti-human IgG in SPR; also called VH Y32F) VH: QVQLVQSGAEVKKPGASVKVSCKASGYTFTGFVMHWVRQAPGQGLEWMGFINPYNDDIQSNERFRGRVTMTRDTSISTAYMELSRLRSDDTAVYYCARGAGYNFDGAYRFFDFWGQGTMVTVSS VL: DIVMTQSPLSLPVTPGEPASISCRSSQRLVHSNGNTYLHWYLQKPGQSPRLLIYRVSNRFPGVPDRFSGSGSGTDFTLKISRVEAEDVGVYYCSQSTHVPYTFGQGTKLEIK",
    "UNIT_TAG": "M⁻¹ s⁻¹",
    "MEASUREMENT": 107000
  },
  {
    "BINDER": "Mut8 (antibody, V domains shown, Variant of hJOVI-1; captured by anti-human IgG in SPR; also called VH G31S) VH: QVQLVQSGAEVKKPGASVKVSCKASGYTFTSYVMHWVRQAPGQGLEWMGFINPYNDDIQSNERFRGRVTMTRDTSISTAYMELSRLRSDDTAVYYCARGAGYNFDGAYRFFDFWGQGTMVTVSS VL: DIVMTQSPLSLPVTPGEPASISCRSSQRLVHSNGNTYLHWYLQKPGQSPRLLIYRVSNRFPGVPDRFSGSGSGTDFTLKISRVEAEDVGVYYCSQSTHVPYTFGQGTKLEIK",
    "UNIT_TAG": "M⁻¹ s⁻¹",
    "MEASUREMENT": 98300
  },
  {
    "BINDER": "Mut12 (antibody, V domains shown, Variant of hJOVI-1; captured by anti-human IgG in SPR; also called VH T28K, Y32F, A100N, N103L; VL N35K) VH: QVQLVQSGAEVKKPGASVKVSCKASGYKFTGFVMHWVRQAPGQGLEWMGFINPYNDDIQSNERFRGRVTMTRDTSISTAYMELSRLRSDDTAVYYCARGNGYLFDGAYRFFDFWGQGTMVTVSS VL: DIVMTQSPLSLPVTPGEPASISCRSSQRLVHSNGKTYLHWYLQKPGQSPRLLIYRVSNRFPGVPDRFSGSGSGTDFTLKISRVEAEDVGVYYCSQSTHVPYTFGQGTKLEIK",
    "UNIT_TAG": "M⁻¹ s⁻¹",
    "MEASUREMENT": 86800
  }
]

Which kon value belongs to Mut11 (antibody, V domains shown, Variant of hJOVI-1; IgG format; also called VH G106A; anti-TRBC1 antibody Mut11) VH: QVQLVQSGAEVKKPGASVKVSCKASGYTFTGYVMHWVRQAPGQGLEWMGFINPYNDDIQSNERFRGRVTMTRDTSISTAYMELSRLRSDDTAVYYCARGAGYNFDAAYRFFDFWGQGTMVTVSS VL: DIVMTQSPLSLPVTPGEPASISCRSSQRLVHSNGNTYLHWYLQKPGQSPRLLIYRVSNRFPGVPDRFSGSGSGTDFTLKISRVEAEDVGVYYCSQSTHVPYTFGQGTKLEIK ?
87300

Need kon of Mut9 (antibody, V domains shown, Variant of hJOVI-1; captured by anti-human IgG in SPR; also called VH G26P, T28K) VH: QVQLVQSGAEVKKPGASVKVSCKASPYKFTGYVMHWVRQAPGQGLEWMGFINPYNDDIQSNERFRGRVTMTRDTSISTAYMELSRLRSDDTAVYYCARGAGYNFDGAYRFFDFWGQGTMVTVSS VL: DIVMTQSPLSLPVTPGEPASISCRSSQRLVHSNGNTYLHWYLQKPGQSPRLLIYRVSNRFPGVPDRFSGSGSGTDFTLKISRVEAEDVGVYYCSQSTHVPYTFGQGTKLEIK , thanks.
85800

I have this binder here, Mut10 (antibody, V domains shown, Variant of hJOVI-1; captured by anti-human IgG in SPR; also called VH Y102M) VH: QVQLVQSGAEVKKPGASVKVSCKASGYTFTGYVMHWVRQAPGQGLEWMGFINPYNDDIQSNERFRGRVTMTRDTSISTAYMELSRLRSDDTAVYYCARGAGMNFDGAYRFFDFWGQGTMVTVSS VL: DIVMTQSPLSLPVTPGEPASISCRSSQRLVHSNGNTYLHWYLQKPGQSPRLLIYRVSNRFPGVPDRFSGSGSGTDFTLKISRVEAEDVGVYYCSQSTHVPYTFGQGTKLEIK , and I need its recorded kon.
106000

Data origin: patent US20230109275A1
